# measured-on: T1, hFc-hFasL (fusion protein of human Fc fragment and human FasL extracellular region) (human, UniProt P48023 134-281)
# T1 sequence: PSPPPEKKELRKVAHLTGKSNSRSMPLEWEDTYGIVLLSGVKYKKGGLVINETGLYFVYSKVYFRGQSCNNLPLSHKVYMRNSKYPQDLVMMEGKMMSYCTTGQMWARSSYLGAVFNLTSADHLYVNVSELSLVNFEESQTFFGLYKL
# assay-notes: cell-based or functional assay
Kindly return true if reported Jurkat IC50(nM), FasL antigen-induced cell apoptosis is no lower than 0.04 nM; return false if it is lower.

{"binder": "humFL-M54-7 (antibody, human IgG4, V domains shown) VH: QVQLVQSGAEVKKPGSSVKVSCKASGYTFTRFDISWVRQAPGQGLEWMGWIFPGDGSSQYNENFKGRATLTTDKSTSTAYMELSSLRSEDTAVYFCARSLISTAMFDHWGQGTLVTVSS VL: EIVMTQSPATLSVSPGERATLSCRASKSVSTSDFSYIHWYQQKPGQPPRLLIYLASHLESGIPARFSGSGSGTEFTLTISSLQSEDFAVYYCQHSRELPRTFGQGTKVEIK", "label-class": "true"}
{"binder": "FL-M54 (antibody, V domains shown, Chimeric full-length antibody, tested as human IgG4 / human kappa) VH: EVQLQQSGVELVKPGASVKLSCKASGYTFTRFDISWVRQRPEQGLEWIGWIFPGDGSSQYNENFKGKATLTTDKSSGTAYMQLNRLTSEDSAVYFCARSLISTAMFDHWGQGTTLTVSS VL: DIVMTQSPASLAVSLGQRATISCRASKSVSTSDFSYIHWYQQKPGQPPKLLIFLASHLESGVPARFSGSGSGTDFTLNIHPVEEEDAATYYCQHSRELPRTFGGGTKLEIK", "label-class": "false"}
{"binder": "humFL-M54-10 (antibody, human IgG4, V domains shown) VH: QVQLVQSGAEVKKPGSSVKVSCKASGYTFTRFDISWVRQAPGQGLEWMGWIFPGDGSSQYNENFKGRVTITADKSTSTAYMELSSLRSEDTAVYFCARSLISTAMFDHWGQGTLVTVSS VL: EIVMTQSPATLSVSPGERATLSCRASKSVSTSDFSYIHWYQQKPGQPPRLLIYLASHLESGIPARFSGSGSGTEFTLTISSLQSEDFAVYYCQHSRELPRTFGQGTKVEIK", "label-class": "false"}
{"binder": "humFL-M54-4 (antibody, human IgG4, V domains shown) VH: QVQLVQSGAEVKKPGSSVKVSCKASGYTFTRFDISWVRQAPGQGLEWMGWIFPGDGSSQYNENFKGRVTLTTDKSTSTAYMELSSLRSEDTAVYFCARSLISTAMFDHWGQGTLVTVSS VL: EIVMTQSPATLSVSPGERATLSCRASKSVSTSDFSYIHWYQQKPGQPPRLLIFLASHLESGIPARFSGSGSGTEFTLTISSLQSEDFAVYYCQHSRELPRTFGQGTKVEIK", "label-class": "true"}
{"binder": "humFL-M54-11 (antibody, human IgG4, V domains shown) VH: QVQLVQSGAEVKKPGSSVKVSCKASGYTFTRFDISWVRQAPGQGLEWIGWIFPGDGSSQYNENFKGRATLTTDKSTSTAYMELSSLRSEDTAVYFCARSLISTAMFDHWGQGTLVTVSS VL: EIVMTQSPATLSVSPGERATLSCRASKSVSTSDFSYIHWYQQKPGQAPRLLIYLASHLESGIPARFSGSGSGTEFTLTISSLQSEDFAVYYCQHSRELPRTFGQGTKVEIK", "label-class": "false"}
